target: GluR2/GAPDH complex (Homo sapiens, UniProt P42262); experiment: Surface plasmon resonance target engagement assay (competitive GluR2-Venus affinity with GAPDH); details: SPR, captured GluR2-VENUS, 100 nM GAPDH peptide, compound top concentration 10 μM; read-out: Potency, GluR2 Binding Affinity (competitive inhibition of GluR2-GAPDH interaction)
Sequence (P42262 25-883, species assumed, one chain of several): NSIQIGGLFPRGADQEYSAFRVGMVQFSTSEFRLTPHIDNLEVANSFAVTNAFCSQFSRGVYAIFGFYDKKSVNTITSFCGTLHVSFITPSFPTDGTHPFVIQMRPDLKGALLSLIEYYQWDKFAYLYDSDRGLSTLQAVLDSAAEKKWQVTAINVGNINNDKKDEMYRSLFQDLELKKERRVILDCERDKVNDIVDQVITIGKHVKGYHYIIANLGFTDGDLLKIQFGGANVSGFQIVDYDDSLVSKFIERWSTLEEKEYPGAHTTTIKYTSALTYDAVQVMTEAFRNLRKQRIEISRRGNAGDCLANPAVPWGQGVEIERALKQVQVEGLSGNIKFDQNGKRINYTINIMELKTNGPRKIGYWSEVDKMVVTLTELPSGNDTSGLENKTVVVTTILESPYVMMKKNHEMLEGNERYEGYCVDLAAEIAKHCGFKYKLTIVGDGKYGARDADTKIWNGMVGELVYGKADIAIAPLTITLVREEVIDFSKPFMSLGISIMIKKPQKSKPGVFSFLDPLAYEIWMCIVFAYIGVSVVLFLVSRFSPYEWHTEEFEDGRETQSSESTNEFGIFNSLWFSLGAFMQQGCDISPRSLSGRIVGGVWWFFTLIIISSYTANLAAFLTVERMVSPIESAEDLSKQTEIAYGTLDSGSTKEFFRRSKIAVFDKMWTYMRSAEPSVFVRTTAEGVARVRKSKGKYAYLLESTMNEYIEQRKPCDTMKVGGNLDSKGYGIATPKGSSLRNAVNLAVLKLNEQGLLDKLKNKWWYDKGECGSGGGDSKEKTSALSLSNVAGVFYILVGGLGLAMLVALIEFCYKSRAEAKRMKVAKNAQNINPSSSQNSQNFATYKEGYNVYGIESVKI
Readout Kind: IC50 (nM)

(A) COc1ccc(Cn2cc3c(n2)CN(c2cccc(C(=O)N(C)C)c2)C3)cc1
(B) O=C(c1cccc(N2Cc3cn(Cc4ccc(F)cc4)nc3C2)c1)N1CCCCC1
(C) O=C(NC1CCCCC1)c1cccc(N2Cc3cn(Cc4ccc(F)cc4)nc3C2)c1
Exam item: Hey, quick one: sort these by IC50, largest value first please. Output spec: labels arranged per the requested ranking.
Marked response: C, A, B

* * *

experiment: Human liver microsomal stability assay; assay type: in vitro ADME; settings: both sexes, pooled human liver microsomes, pH 7.4; human liver microsomes 0.5 mg/mL, 3 μM compound, NADPH, 37° C., 45 min; read-out: T1/2, human liver microsomal stability
Readout Kind: half-life at 3 μM (min)

* CN(C(=O)c1cncc(N2Cc3cn(Cc4ccc(F)cc4)nc3C2)n1)C1CCCC1 [Compound 228] | 8

(I) CN(C(=O)c1ccnc(N2Cc3cn(Cc4ccc(F)cc4)nc3C2)n1)C1CCCC1 [Compound 226]
(II) CN(C)C(=O)c1ccnc(N2Cc3cn(Cc4ccc(F)cc4)nc3C2)n1 [Compound 210]
Exam item: Smaller half-life at 3 μM value, I vs II ? In your reply, give the label of the chosen option.
Marked response: I
(I: 7 min, II: 749 min)

* * *

target: GluR2/GAPDH complex (Homo sapiens, UniProt P42262); experiment: Surface plasmon resonance target engagement assay (competitive GluR2-Venus affinity with GAPDH); conditions: SPR, captured GluR2-VENUS, 100 nM GAPDH peptide, compound top concentration 10 μM; read-out: Potency, GluR2 Binding Affinity (competitive inhibition of GluR2-GAPDH interaction)
Counter-ions that a name gives are not always drawn.
Readout Kind: IC50 (nM)

• CN(C)C(=O)c1cncc(N2Cc3cn(Cc4cccc(F)c4)nc3C2)n1 [Compound 236] = 275
• O=C(c1cccc(N2Cc3cn(Cc4ccc(F)cc4)nc3C2)c1)N1CCNCC1 [Compound 220, hydrochloride] = 85
• O=C(NC1CCCCC1)c1ccnc(N2Cc3cn(Cc4ccc(F)cc4)nc3C2)n1 [Compound 209] = 99
• N#Cc1cncc(N2Cc3cn(Cc4ccc(F)cc4)nc3C2)n1 [Compound 245] = 206
• CN(C)C(=O)c1cccc(N2Cc3cn(Cc4cccc(F)c4)nc3C2)c1 [Compound 237] = 30
• CN1CCN(C(=O)c2ccnc(N3Cc4cn(Cc5ccc(F)cc5)nc4C3)n2)CC1 [Compound 212] = 31

(I) O=C(NC1CCCCC1)c1cncc(N2Cc3cn(Cc4ccc(F)cc4)nc3C2)n1 [Compound 214]
(II) CN(C)C(=O)c1cncc(N2Cc3cn(CC4CCCCC4)nc3C2)n1 [Compound 238]
(III) Cc1ccc(Cn2cc3c(n2)CN(c2cccc(C(=O)N(C)C)c2)C3)cc1 [Compound 235]
Exam item: Order by IC50, ascending. Your answer should be the labels, listed in the requested order.
Marked response: I, II, III

(1) O=C(c1ccnc(N2Cc3cn(Cc4ccc(F)cc4)nc3C2)n1)N1CCOCC1 [Compound 211]
(2) N#Cc1ccnc(N2Cc3cn(Cc4ccc(F)cc4)nc3C2)n1 [Compound 241]
Exam item: Smaller IC50 value? Options are 1 and 2 Refer to your chosen item by its label in the answer.
Marked response: 2
(2: 20 nM, 1: 34 nM)

(I) N#Cc1cccc(N2Cc3cn(Cc4ccc(F)cc4)nc3C2)c1 [Compound 240]
(II) O=C(NCC(F)(F)F)c1cccc(N2Cc3cn(Cc4ccc(F)cc4)nc3C2)c1 [Compound 219]
(III) Cc1ccc(Cn2cc3c(n2)CN(c2cncc(C(=O)N(C)C)n2)C3)cc1 [Compound 234]
Exam item: Arrange these molecules by their IC50, starting with the largest number. Give the order by naming the labels one after another as requested.
Marked response: III, I, II
(III: 139 nM, I: 26 nM, II: 14 nM)

(1) CN(C)C(=O)c1ccc(N2Cc3cn(Cc4ccc(F)cc4)nc3C2)cc1 [Compound 246]
(2) O=C(NC1CCCC1)c1cccc(N2Cc3cn(Cc4ccc(F)cc4)nc3C2)c1 [Compound 215]
Exam item: Between 1 and 2 , which one shows the smaller IC50 number? Lab log: write the label of the selected item as the result.
Marked response: 2
(2: 48 nM, 1: 440 nM)
